Biological target: Neuromedin-U receptor 2 (Homo sapiens) (UniProt Q9GZQ4)
Sequence (Q9GZQ4 whole entry): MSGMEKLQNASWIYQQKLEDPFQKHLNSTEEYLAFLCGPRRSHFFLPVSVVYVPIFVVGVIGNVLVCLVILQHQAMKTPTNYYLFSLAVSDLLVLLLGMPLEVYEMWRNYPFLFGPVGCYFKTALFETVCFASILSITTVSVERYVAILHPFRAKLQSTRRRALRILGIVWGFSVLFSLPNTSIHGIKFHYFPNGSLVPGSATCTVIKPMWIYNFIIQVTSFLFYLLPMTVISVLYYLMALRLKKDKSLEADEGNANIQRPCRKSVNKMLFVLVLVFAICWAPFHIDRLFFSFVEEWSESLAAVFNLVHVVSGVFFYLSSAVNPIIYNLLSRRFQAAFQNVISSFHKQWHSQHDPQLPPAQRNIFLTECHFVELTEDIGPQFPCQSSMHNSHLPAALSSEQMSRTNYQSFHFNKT
Test: Agonist activity at human NMUR2 expressed in CHO cells assessed as induction of Ca2+ flux at 10 nM after 18 hrs by Fluo-4 AM dye based FLIPR assay relative to NMU
Assay type: functional, cell-based
Calls of active or inactive are those of the source. No cut-off for these calls is given here. Square brackets hold non-standard residues; d marks the D form. Peptide text beside a SMILES is read from it. * marks the point of attachment. Phe(4-NO2) = N[C@@H](Cc1ccc([N+](=O)[O-])cc1)C(=O)O; Phe(4-CF3) = N[C@@H](Cc1ccc(C(F)(F)F)cc1)C(=O)O; Bpa = N[C@@H](Cc1ccc(C(=O)c2ccccc2)cc1)C(=O)O; Phe(4-Br) = N[C@@H](Cc1ccc(Br)cc1)C(=O)O; Phe(4-Cl) = N[C@@H](Cc1ccc(Cl)cc1)C(=O)O; 1Nal = N[C@@H](Cc1cccc2ccccc12)C(=O)O; Acetyl(2-thienyl) = O=C(Cc1cccs1)*
Classes used: class 1 = active, class 0 = inactive

- molecule: "N=C(N)NCCC[C@H](NC(=O)[C@@H]1CCCN1C(=O)[C@H](CCCNC(=N)N)NC(=O)[C@H](Cc1ccc(C(=O)c2ccccc2)cc1)NC(=O)[C@H](Cc1c[nH]c2ccccc12)NC(=O)Cc1cccs1)C(=O)N[C@@H](CC(N)=O)C(N)=O ({Acetyl(2-thienyl)}-W[Bpa]RPRN-NH2)"
  study target: "Neuromedin-U receptor 2 (Homo sapiens) (UniProt Q9GZQ4)"
  classification: "class 0"
- molecule: "N=C(N)NCCC[C@H](NC(=O)[C@@H]1CCCN1C(=O)[C@H](CCCNC(=N)N)NC(=O)[C@H](Cc1ccc(Cl)cc1)NC(=O)[C@H](Cc1c[nH]c2ccccc12)NC(=O)Cc1cccs1)C(=O)N[C@@H](CC(N)=O)C(N)=O ({Acetyl(2-thienyl)}-W[Phe(4-Cl)]RPRN-NH2)"
  study target: "Neuromedin-U receptor 2 (Homo sapiens) (UniProt Q9GZQ4)"
  classification: "class 1"
- molecule: "COc1ccc(C[C@H](NC(=O)[C@H](Cc2c[nH]c3ccccc23)NC(=O)Cc2cccs2)C(=O)N[C@@H](CCCNC(=N)N)C(=O)N2CCC[C@H]2C(=O)N[C@@H](CCCNC(=N)N)C(=O)N[C@@H](CC(N)=O)C(N)=O)cc1 ({Acetyl(2-thienyl)}-WY(Me)RPRN-NH2)"
  study target: "Neuromedin-U receptor 2 (Homo sapiens) (UniProt Q9GZQ4)"
  classification: "class 0"
- molecule: "N=C(N)NCCC[C@H](NC(=O)[C@@H]1CCCN1C(=O)[C@H](CCCNC(=N)N)NC(=O)[C@H](Cc1cccc2ccccc12)NC(=O)[C@H](Cc1c[nH]c2ccccc12)NC(=O)Cc1cccs1)C(=O)N[C@@H](CC(N)=O)C(N)=O ({Acetyl(2-thienyl)}-W[1Nal]RPRN-NH2)"
  study target: "Neuromedin-U receptor 2 (Homo sapiens) (UniProt Q9GZQ4)"
  classification: "class 0"
- molecule: "N=C(N)NCCC[C@H](NC(=O)[C@@H]1CCCN1C(=O)[C@H](CCCNC(=N)N)NC(=O)[C@H](Cc1ccc([N+](=O)[O-])cc1)NC(=O)[C@H](Cc1c[nH]c2ccccc12)NC(=O)Cc1cccs1)C(=O)N[C@@H](CC(N)=O)C(N)=O ({Acetyl(2-thienyl)}-W[Phe(4-NO2)]RPRN-NH2)"
  study target: "Neuromedin-U receptor 2 (Homo sapiens) (UniProt Q9GZQ4)"
  classification: "class 0"
- molecule: "N=C(N)NCCC[C@H](NC(=O)[C@@H]1CCCN1C(=O)[C@H](CCCNC(=N)N)NC(=O)[C@H](Cc1ccc(Br)cc1)NC(=O)[C@H](Cc1c[nH]c2ccccc12)NC(=O)Cc1cccs1)C(=O)N[C@@H](CC(N)=O)C(N)=O ({Acetyl(2-thienyl)}-W[Phe(4-Br)]RPRN-NH2)"
  study target: "Neuromedin-U receptor 2 (Homo sapiens) (UniProt Q9GZQ4)"
  classification: "class 0"
- molecule: "N=C(N)NCCC[C@H](NC(=O)[C@@H]1CCCN1C(=O)[C@H](CCCNC(=N)N)NC(=O)[C@H](Cc1ccc(C(F)(F)F)cc1)NC(=O)[C@H](Cc1c[nH]c2ccccc12)NC(=O)Cc1cccs1)C(=O)N[C@@H](CC(N)=O)C(N)=O ({Acetyl(2-thienyl)}-W[Phe(4-CF3)]RPRN-NH2)"
  study target: "Neuromedin-U receptor 2 (Homo sapiens) (UniProt Q9GZQ4)"
  classification: "class 0"

###

Experiment: AUC in Wistar rat at 1 mg, iv up to 240 mins by LC/MS analysis
Assay type: ADME, organism-based
Parameters: dose 1 mg, time < 4 hr, route intravenous
Details: in vivo
Square brackets hold non-standard residues; d marks the D form. Peptide text beside a SMILES is read from it. * marks the point of attachment. Phe(4-F) = N[C@@H](Cc1ccc(F)cc1)C(=O)O; Acetyl(2-thienyl) = O=C(Cc1cccs1)*

- molecule: "N=C(N)NCCC[C@H](NC(=O)[C@@H]1CCCN1C(=O)[C@H](CCCNC(=N)N)NC(=O)[C@H](Cc1ccc(F)cc1)NC(=O)[C@H](Cc1c[nH]c2ccccc12)NC(=O)Cc1cccs1)C(=O)N[C@@H](CC(N)=O)C(N)=O ({Acetyl(2-thienyl)}-W[Phe(4-F)]RPRN-NH2)"
  AUC at 4 h (ng·h/mL): 5300

###

Target: Neuromedin-U receptor 2 (Homo sapiens)
Test: Agonist activity at human NMUR2 expressed in CHO cells assessed as induction of Ca2+ flux at 10 nM after 18 hrs by Fluo-4 AM dye based FLIPR assay relative to NMU
Format: functional, cell-based
The source made the active and inactive calls. The rule behind the calls is not given here. Square brackets hold non-standard residues; d marks the D form. Peptide text beside a SMILES is read from it. * marks the point of attachment. Bip = N[C@@H](Cc1ccc(-c2ccccc2)cc1)C(=O)O; Phe(4-CN) = N#Cc1ccc(C[C@H](N)C(=O)O)cc1; Acetyl(2-thienyl) = O=C(Cc1cccs1)*

- compound: "N=C(N)NCCC[C@H](NC(=O)[C@@H]1CCCN1C(=O)[C@H](CCCNC(=N)N)NC(=O)[C@H](Cc1ccc(-c2ccccc2)cc1)NC(=O)[C@H](Cc1c[nH]c2ccccc12)NC(=O)Cc1cccs1)C(=O)N[C@@H](CC(N)=O)C(N)=O ({Acetyl(2-thienyl)}-W[Bip]RPRN-NH2)"
  study target: "Neuromedin-U receptor 2 (Homo sapiens)"
  Activity: "inactive"
- compound: "N#Cc1ccc(C[C@H](NC(=O)[C@H](Cc2c[nH]c3ccccc23)NC(=O)Cc2cccs2)C(=O)N[C@@H](CCCNC(=N)N)C(=O)N2CCC[C@H]2C(=O)N[C@@H](CCCNC(=N)N)C(=O)N[C@@H](CC(N)=O)C(N)=O)cc1 ({Acetyl(2-thienyl)}-W[Phe(4-CN)]RPRN-NH2)"
  study target: "Neuromedin-U receptor 2 (Homo sapiens)"
  Activity: "inactive"
